As shown below, each of these compounds has a reported IC50 value.
- System Name: full-length human PKCι (Homo sapiens, UniProt P41743)
- Construct: Recombinant, full-length human PKCι expressed in Sf21 insect cells is also commercially available; purchased EMD Millipore; host or cells: Sf21 insect cells (baculovirus)
- Experiment Summary: PKCι IC50 IMAP fluorescence polarisation assay, full-length enzyme, 150 μM ATP
- Format: biochemical
- Condition Label: read-out: IC50 in IMAP assay against full length PKCi at 150 μM ATP

The examples below pair each entry with its known result.
# Compound, IC50
data = [
    ("CC1(C)CNCC[C@@H]1Nc1nc(-c2ccnc(Nc3ncc(F)cc3F)c2)nc2cncc(C3CCC3)c12 [Example 211]", "< 100 nM"),
    ("Cc1cc2c(-c3nc(N(C)C4CCNCC4(C)C)c4c(C5CC5)cncc4n3)ccnc2[nH]1 (centres unmarked) [Example 115]", "< 100 nM"),
    ("Cc1cnc(F)c(-c2cc3c(-c4nc(N[C@H]5CCNCC5(C)C)c5c(C6CC6)cncc5n4)ccnc3[nH]2)c1 [Example 364]", "< 100 nM"),
]

Bench note, full-length human PKCι (Homo sapiens, UniProt P41743): entry CC1(C)CNCC[C@@H]1Nc1nc(-c2ccnc3[nH]c(C(F)(F)F)cc23)nc2cncc(C3CCC3)c12 [Example 228] , its IC50 = < 100 nM

Bench note, full-length human PKCι (Homo sapiens, UniProt P41743): entry CC1(C)CNCCC1Nc1nc(-c2ccnc(Nc3cc(C(F)(F)F)ccn3)c2)nc2cncc(C3CC3)c12 (centres unmarked) [Example 51] , its IC50 = < 100 nM

full-length human PKCι (Homo sapiens, UniProt P41743) data for CC1(C)CNCC[C@@H]1Nc1nc(-c2ccnc(Nc3nc(F)ccc3F)c2)nc2cncc(C3CC3)c12 [Example 158] ; its IC50: < 100 nM

The compound C[C@@H]1CNCC[C@H]1Nc1nc(-c2ccnc(Nc3ncccc3F)c2)nc2cncc(C3CCC3)c12 (racemic) [Example 289] on full-length human PKCι (Homo sapiens, UniProt P41743): IC50 was < 100 nM

The reported IC50 value, full-length human PKCι (Homo sapiens, UniProt P41743), for CC1(C)CNCC[C@@H]1Nc1nc(-c2cccc(Nc3cnccn3)c2)nc2cncc(C3CCC3)c12 [Example 324] reads 1000 to 10000 nM

The reported IC50 value, full-length human PKCι (Homo sapiens, UniProt P41743), for C[C@@H]1CNCC[C@@H]1Nc1nc(-c2ccnc(Nc3nc(F)ccc3F)c2)nc2cncc(C3CC3)c12 (racemic) [Example 224] reads < 100 nM

Cc1cc2c(-c3nc(N4CC[C@H]5NCC[C@H]54)c4c(C5CC5)cncc4n3)ccnc2[nH]1 (racemic) [Example 82] on full-length human PKCι (Homo sapiens, UniProt P41743) gives IC50 = < 100 nM

Kindly note: full-length human PKCι (Homo sapiens, UniProt P41743), NC[C@@H]1CCN(c2nc(-c3ccnc4[nH]c5ccccc5c34)nc3cncc(C4CCC4)c23)C1 [Example 248] , IC50 value reported: < 100 nM

# value of IC50, full-length human PKCι (Homo sapiens, UniProt P41743), item O[C@@H]1CNCC[C@H]1Nc1nc(-c2ccnc(Nc3ccc4ccccc4n3)c2)nc2cncc(C3CCC3)c12 (racemic) [Example 273] = < 100 nM

// compound CN(c1nc(-c2ccnc3[nH]c4ccccc4c23)nc2cncc(C3CC3)c12)[C@@H]1CCNC[C@@]1(C)O (racemic) [Example 114] , assay full-length human PKCι (Homo sapiens, UniProt P41743), IC50 value: < 100 nM

For CC1(C)CNCCC1Nc1nc(-c2ccnc(Nc3nccc4ccccc34)c2)nc2cncc(C3CCC3)c12 (centres unmarked) [Example 89] on full-length human PKCι (Homo sapiens, UniProt P41743), measured IC50 was < 100 nM

* * *

- System Name: full-length human PKCι (Homo sapiens)
- Construct: Recombinant, full-length human PKCι expressed in Sf21 insect cells is also commercially available
- Experiment Summary: PKCι IC50 IMAP fluorescence polarisation assay, full-length enzyme, 150 μM ATP
- Condition Label: read-out: IC50 in IMAP assay against full length PKCi at 150 μM ATP
pIC50: −log10 of the molar value.
Recorded measurements of pIC50, one per entry

Answered cases to consult:
# Compound, Reported Endpoint, Observed
data = [
    ("COc1nc(-c2cc3c(-c4nc(N5CCC6CNCCC65)c5c(C6CC6)cncc5n4)ccnc3[nH]2)cs1 (stereo not shown)", "pIC50", "> 7.00"),
    ("O[C@H]1CNCC[C@H]1Nc1nc(-c2ccnc(Nc3nc(F)cc(F)c3F)c2)nc2cncc(C3CCC3)c12 (racemic)", "pIC50", "> 7.00"),
    ("CN(c1nc(-c2ccnc(Nc3nc(C4CC4)cs3)c2)nc2cncc(C3CC3)c12)C1CCNCC1(C)C (stereo not shown)", "pIC50", "6.00 to 7.00"),
]

pIC50 reading for FC(F)(F)c1cncc2nc(-c3ccnc4[nH]c5ccccc5c34)nc(N3CC[C@@H]4CNC[C@@H]43)c12 : 6.00 to 7.00

pIC50 reported for this compound C[C@@H]1CNCC[C@@H]1Nc1nc(-c2ccnc(Nc3ncccc3F)c2)nc2cncc(C3CC3)c12 (racemic) : 6.00 to 7.00

Given item CC1CNCCC1Nc1nc(-c2ccnc(Nc3nc(F)c(F)cc3F)c2)nc2cncc(C3CCC3)c12 (stereo not shown) , the value recorded as its pIC50 is > 7.00

So, Clc1ccc(Cl)c(-c2cc3c(-c4nc(N5CCC6NCCC65)c5c(C6CC6)cncc5n4)ccnc3[nH]2)c1 (stereo not shown) ? Its pIC50 was > 7.00

* * *

- System Name: full-length human PKCι (Homo sapiens)
- Construct: Recombinant, full-length human PKCι expressed in Sf21 insect cells is also commercially available
- Sequence (P41743 1-596): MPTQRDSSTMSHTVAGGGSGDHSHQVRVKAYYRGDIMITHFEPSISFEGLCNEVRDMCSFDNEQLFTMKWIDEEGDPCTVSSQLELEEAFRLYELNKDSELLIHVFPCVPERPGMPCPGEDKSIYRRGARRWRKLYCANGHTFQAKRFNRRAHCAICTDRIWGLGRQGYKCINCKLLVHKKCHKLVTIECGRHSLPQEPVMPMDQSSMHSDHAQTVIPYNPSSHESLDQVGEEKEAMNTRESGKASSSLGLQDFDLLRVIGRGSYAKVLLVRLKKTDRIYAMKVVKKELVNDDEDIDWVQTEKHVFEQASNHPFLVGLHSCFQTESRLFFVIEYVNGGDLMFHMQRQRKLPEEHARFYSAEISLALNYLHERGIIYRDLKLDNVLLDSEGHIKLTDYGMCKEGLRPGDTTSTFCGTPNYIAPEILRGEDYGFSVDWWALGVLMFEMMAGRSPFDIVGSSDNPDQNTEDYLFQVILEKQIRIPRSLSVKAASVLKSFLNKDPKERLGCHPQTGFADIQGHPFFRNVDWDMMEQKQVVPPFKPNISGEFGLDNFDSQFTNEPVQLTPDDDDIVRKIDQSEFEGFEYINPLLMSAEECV
- Experiment Summary: PKCι IC50 IMAP fluorescence polarisation assay, full-length enzyme, 150 μM ATP
- Condition Label: read-out: IC50 in IMAP assay against full length PKCi at 150 μM ATP
pIC50: −log10 of the molar value.
The following compounds are listed with their measured pIC50 values.

# Compound, Reported Endpoint, Observed
records = [
    ("Clc1ccc(-c2cc3c(-c4nc(N5CCNCC5)c5c(C6CC6)cncc5n4)ccnc3[nH]2)c(Cl)c1", "pIC50", "> 7.00"),
    ("c1ccc2c(c1)oc1nccc(-c3nc(NC4CCNCC4)c4c(C5CC5)cncc4n3)c12", "pIC50", "5.00 to 6.00"),
    ("O[C@@H]1CNCC[C@H]1Nc1nc(-c2ccnc(Nc3ncccc3F)c2)nc2cncc(C3CC3)c12 (racemic)", "pIC50", "6.00 to 7.00"),
]

// pIC50 lookup, compound = C[C@@H]1CNCC[C@@H]1Nc1nc(-c2ccnc(Nc3ncc(F)cc3F)c2)nc2cncc(C3CCC3)c12 (racemic) , result: > 7.00

Entry Cc1cc2c(-c3nc(N[C@H]4CCNCC4(C)C)c4c(C5CC5)cncc4n3)ccnc2[nH]1 — recorded pIC50 = 6.00 to 7.00

Measured pIC50 of Fc1ccc(F)c(Nc2cc(-c3nc(NC4CCCNCC4)c4c(C5CCC5)cncc4n3)ccn2)n1 (centres unmarked) : > 7.00

The value of pIC50 measured for the compound CC1(C)CNCC[C@@H]1Nc1nc(-c2ccnc(Nc3ccc(F)cn3)c2)nc2cncc(C3CCC3)c12 turned out to be > 7.00

Memo: CN(c1nc(-c2ccnc3[nH]c(Sc4ccccc4)cc23)nc2cncc(C3CCC3)c12)C1CCNCC1 , reported pIC50: > 7.00

compound O[C@H]1CNCC[C@H]1Nc1nc(-c2ccnc(Nc3ncccc3F)c2)nc2cncc(C3CC3)c12 (racemic) , pIC50 observed: 6.00 to 7.00

Record summary for Cc1nc(Nc2cc(-c3nc(N[C@H]4CCNC[C@H]4C)c4c(C5CCC5)cncc4n3)ccn2)ccc1C#N (racemic) : reported pIC50 = > 7.00

pIC50 measured on C[C@@H]1CNCC[C@@H]1Nc1nc(-c2ccnc(Nc3ncccc3F)c2)nc2cncc(C3CCC3)c12 (racemic) = > 7.00

Origin of values: patent US10414763B2
